# reported IC50; entries follow
Species on record: Homo sapiens
test.summary: In vitro inhibition of collagen-induced platelet aggregation in human platelet rich plasma
Type: functional
Mention the unit after the number when you answer.

Example entries begin here.
> print(dat)
                                   compound   measured
1  COC(=O)Cc1nc(-c2ccc(OC)cc2)c(-c2ccc(OC)cc2)s1  0.1 ng/mL
2     FC(F)(F)c1nc(-c2ccccc2)c(-c2ccccc2)s1  320 ng/mL
3  COC(=O)C(C)(C)c1nc(-c2ccc(OC)cc2)c(-c2ccc(OC)cc2)s1  3.2 ng/mL

Q: Write down IC50 measured for item COc1ccc(-c2nc(C(C)(C)CO)sc2-c2ccc(OC)cc2)cc1
A: 3.2 ng/mL

Q: Write down IC50 measured for item CC(C(=O)O)c1ccc(-c2ccccc2)c(F)c1 (stereo unspecified)
A: 320 ng/mL

Q: Write down IC50 measured for item COc1ccc(-c2ncsc2-c2ccc(OC)cc2)cc1
A: 32 ng/mL

Q: Write down IC50 measured for item COc1ccc(-c2nc(CC(N)=O)sc2-c2ccc(OC)cc2)cc1
A: 3.2 ng/mL

Q: Write down IC50 measured for item COc1ccc(-c2nc(C)sc2-c2ccc(OC)cc2)cc1
A: 0.32 ng/mL

Q: Write down IC50 measured for item COc1ccc(-c2nc(C(C)C)sc2-c2ccc(OC)cc2)cc1
A: 3.2 ng/mL

Q: Write down IC50 measured for item CC(=O)Oc1ccccc1C(=O)O
A: 10000 ng/mL

Q: Write down IC50 measured for item FC(F)(F)c1nc(-c2ccc(Cl)cc2)c(-c2ccc(Cl)cc2)s1
A: 32 ng/mL

###

Species: Cavia porcellus
test.summary: In vitro inhibition of collagen-induced platelet aggregation in guinea pig platelet rich plasma
Format: functional
readout.kind: IC50 (µg/mL)
Just the number please, in µg/mL, no unit attached.

Example entries begin here.
> print(dat)
                                   compound  readout.kind  measured
1    COc1ccc(-c2nc(CCO)sc2-c2ccc(OC)cc2)cc1          IC50    0.0032
2  COc1ccc(-c2nc(C(C)(C)CO)sc2-c2ccc(OC)cc2)cc1          IC50      0.01
3  COc1ccc(-c2nc(C(F)(F)F)sc2-c2ccc(OC)cc2)cc1 [ITAZIGREL]          IC50      0.01
4  COC(=O)C(C)(C)c1nc(-c2ccc(OC)cc2)c(-c2ccc(OC)cc2)s1          IC50      0.01

Q: Write down IC50 measured for item CC(C(=O)O)c1ccc(-c2ccccc2)c(F)c1 (stereo unspecified) [FLURBIPROFEN]
A: 0.32

Q: Write down IC50 measured for item COc1ccc(-c2nc(C(C)C)sc2-c2ccc(OC)cc2)cc1
A: 0.01
